system: DU-145; assay: Cytotoxicity against human DU145 cells assessed as inhibition of cell viability after 24 hrs by CCK-8 assay; type: functional, cell-based; conditions: DU-145, 24 h
Listed here: items and their measured IC50.
Give the value, in units of µM, as a plain number.

Known results for compounds:
STRUCTURE_AS_SMILES: COc1cc(OC)cc(OCc2ccc(CCN3CCN(c4cccc(Cl)c4Cl)CC3)cc2)c1
IC50 / µM: 30.2
--
STRUCTURE_AS_SMILES: COc1cc(OC)cc(OCc2ccc(CCN3CCN(c4ccc(C(F)(F)F)cc4)CC3)cc2)c1
IC50 / µM: 28.5
--
STRUCTURE_AS_SMILES: COc1cc(OC)cc(OCc2ccc(CCN3CCN(c4ccccc4F)CC3)cc2)c1
IC50 / µM: 25.4
--
STRUCTURE_AS_SMILES: COc1cc(OC)cc(OCc2ccc(CCN3CCN(c4ccccc4)CC3)cc2)c1
IC50 / µM: 25
--
STRUCTURE_AS_SMILES: COc1cc(OC)cc(OCc2ccc(CCN3CCN(Cc4ccccc4)CC3)cc2)c1
IC50 / µM: 5.83

Find the measured IC50 of `COc1cc(OC)cc(OCc2ccc(CCN3CCN(c4cccc(OC)c4)CC3)cc2)c1` and report it.
16.9

Assign IC50 to the following record: `COc1cc(OC)cc(OCc2ccc(CCN3CCN(c4ccccc4OC)CC3)cc2)c1`
30.5

Given `CCOc1ccccc1N1CCN(CCc2ccc(COc3cc(OC)cc(OC)c3)cc2)CC1` , respond with its IC50.
27.2

Report measured IC50; entry is `COc1cc(OC)cc(OCc2ccc(CCN3CCN(c4ccc(F)cc4)CC3)cc2)c1`
28.2

State its IC50 for this compound: `COc1cc(OC)cc(OCc2ccc(CCN3CCN(c4ccccc4Cl)CC3)cc2)c1`
23.2
